molecular target: CRBN (Homo sapiens); experiment: In-cell CRBN engagement NanoBRET; conditions: EC50 CRBN engagement, HEK293T cells, SD40–PRKRA overexpression (plasmid transfection)

| COMPOUND | UNIT LABEL | EC50 |
| --- | --- | --- |
| O=C1CCC(N2C(=O)c3ccc(N4CCOCC4)cc3C2=O)C(=O)N1 (stereo not shown) [PT-179] | nM | 169 |

----------
biological target: UniProt Q96SW2; assay: Two-hybrid luciferase transcriptional activation in PMBN-permeabilized E. coli by compound-induced ternary complex of RR69–human full-length CRBN with ω–degron, about 1 h at 37 °C, four-parameter fit.; conditions: n = 3
RESULT TYPE: EC50

| COMPOUND | MEAS VALUE |
| --- | --- |
| O=C1CCC(N2C(=O)c3ccc(N4CCOCC4)cc3C2=O)C(=O)N1 (stereo not shown) | 217 nM |

----------
target: full-length CRBN (MG-PACE circuit, SD35) (Homo sapiens, UniProt Q96SW2); assay: Two-hybrid luciferase transcriptional activation in PMBN-permeabilized E. coli by compound-induced ternary complex of RR69–human full-length CRBN with ω–degron, about 1 h at 37 °C, four-parameter fit.; type: cell-based, E. coli S2060; conditions: n = 3
Sequence (Q96SW2 whole entry): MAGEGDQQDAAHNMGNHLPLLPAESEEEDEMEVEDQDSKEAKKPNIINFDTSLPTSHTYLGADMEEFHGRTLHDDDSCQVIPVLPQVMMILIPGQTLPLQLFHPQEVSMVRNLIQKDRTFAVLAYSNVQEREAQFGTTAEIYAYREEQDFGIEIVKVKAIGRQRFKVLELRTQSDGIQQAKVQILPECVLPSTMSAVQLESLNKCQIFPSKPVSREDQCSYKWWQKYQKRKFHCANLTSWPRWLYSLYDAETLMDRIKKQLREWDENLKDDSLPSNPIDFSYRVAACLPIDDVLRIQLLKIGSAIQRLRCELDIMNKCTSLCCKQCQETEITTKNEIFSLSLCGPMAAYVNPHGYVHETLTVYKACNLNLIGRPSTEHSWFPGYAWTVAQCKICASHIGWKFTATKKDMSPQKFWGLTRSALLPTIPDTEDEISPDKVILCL
pEC50: −log10 of the molar value.

| COMPOUND | pEC50 |
| --- | --- |
| O=C1CCC(N2C(=O)c3ccc(N4CCOCC4)cc3C2=O)C(=O)N1 (stereo not shown) | 6.25 |

----------
biological target: CRBN (Homo sapiens, UniProt Q96SW2); experiment: In-cell CRBN engagement NanoBRET; conditions: EC50 CRBN engagement, HEK293T cells, No SD40 (fig. S16 protocol)
Sequence (Q96SW2 whole entry): as above
Sequence (Q16531 whole entry partner): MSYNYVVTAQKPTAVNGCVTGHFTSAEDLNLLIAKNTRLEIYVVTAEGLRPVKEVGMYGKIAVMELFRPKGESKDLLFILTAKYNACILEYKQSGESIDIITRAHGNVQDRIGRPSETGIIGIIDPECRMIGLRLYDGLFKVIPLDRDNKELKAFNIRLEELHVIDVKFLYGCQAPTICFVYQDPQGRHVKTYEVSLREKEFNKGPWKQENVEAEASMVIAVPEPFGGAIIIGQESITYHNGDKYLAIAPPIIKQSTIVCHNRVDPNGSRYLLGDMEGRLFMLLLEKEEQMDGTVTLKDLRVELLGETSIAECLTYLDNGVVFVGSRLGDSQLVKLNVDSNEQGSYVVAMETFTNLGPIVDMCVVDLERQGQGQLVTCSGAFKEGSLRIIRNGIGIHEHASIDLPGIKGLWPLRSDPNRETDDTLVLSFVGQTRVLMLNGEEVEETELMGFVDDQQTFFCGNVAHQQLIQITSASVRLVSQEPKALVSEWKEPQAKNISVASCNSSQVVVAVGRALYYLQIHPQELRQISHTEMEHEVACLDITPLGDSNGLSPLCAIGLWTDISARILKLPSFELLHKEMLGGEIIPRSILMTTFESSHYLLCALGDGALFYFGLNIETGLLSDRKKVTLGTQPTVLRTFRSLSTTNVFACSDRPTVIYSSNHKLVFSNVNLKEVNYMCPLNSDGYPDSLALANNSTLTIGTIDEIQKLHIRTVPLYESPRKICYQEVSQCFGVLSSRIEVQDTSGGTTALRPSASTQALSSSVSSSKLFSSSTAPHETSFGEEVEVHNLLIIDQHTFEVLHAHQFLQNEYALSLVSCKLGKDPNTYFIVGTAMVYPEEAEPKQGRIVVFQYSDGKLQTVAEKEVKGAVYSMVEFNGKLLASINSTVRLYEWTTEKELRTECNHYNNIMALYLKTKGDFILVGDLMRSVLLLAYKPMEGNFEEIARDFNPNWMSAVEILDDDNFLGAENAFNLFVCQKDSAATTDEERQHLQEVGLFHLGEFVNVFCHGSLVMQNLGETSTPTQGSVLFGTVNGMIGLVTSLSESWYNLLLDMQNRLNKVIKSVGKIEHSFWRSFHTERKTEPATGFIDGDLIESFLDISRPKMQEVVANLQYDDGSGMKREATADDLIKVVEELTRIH
RESULT TYPE: EC50 (nM)

| COMPOUND | TEST TARGET | MEAS VALUE |
| --- | --- | --- |
| O=C1CCC(N2C(=O)c3ccc(N4CCOCC4)cc3C2=O)C(=O)N1 (stereo not shown) | CRBN (Homo sapiens, UniProt Q96SW2) | 641 |

----------
target: CRBN (Homo sapiens); experiment: In-cell CRBN engagement NanoBRET; conditions: EC50 CRBN engagement, HEK293T cells, SD40–PRKRA low expression (single-copy lentiviral integration)
RESULT TYPE: EC50

| COMPOUND | MEAS VALUE |
| --- | --- |
| O=C1CCC(N2C(=O)c3ccc(N4CCOCC4)cc3C2=O)C(=O)N1 (stereo not shown) [PT-179] | 350 nM |

----------
target: mmCRBN (MG-PACE circuit, SD55) (Mus musculus); construct: mouse cereblon in mmCRBN MG-PACE circuit, partner SD55 (evolved ZF degron), in E. coli; test: Two-hybrid luciferase transcriptional activation in PMBN-permeabilized E. coli by compound-induced ternary complex of mouse CRBN with evolved degron, about 1 h at 37 °C, four-parameter fit.; conditions: n = 3
Sequence (Q8C7D2 whole entry): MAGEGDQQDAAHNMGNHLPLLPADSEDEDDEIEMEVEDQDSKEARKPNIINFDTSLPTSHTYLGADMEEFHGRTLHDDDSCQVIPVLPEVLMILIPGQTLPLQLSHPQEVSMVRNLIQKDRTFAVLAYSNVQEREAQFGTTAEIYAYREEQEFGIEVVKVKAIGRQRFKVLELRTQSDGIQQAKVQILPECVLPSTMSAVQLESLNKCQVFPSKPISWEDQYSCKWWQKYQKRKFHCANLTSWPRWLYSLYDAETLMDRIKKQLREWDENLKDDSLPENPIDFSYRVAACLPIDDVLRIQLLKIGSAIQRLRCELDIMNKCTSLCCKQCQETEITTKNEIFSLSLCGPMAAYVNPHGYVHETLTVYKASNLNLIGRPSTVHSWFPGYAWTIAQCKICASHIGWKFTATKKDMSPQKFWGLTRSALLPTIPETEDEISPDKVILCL

| COMPOUND | EC50, nM |
| --- | --- |
| O=C1CCC(N2C(=O)c3ccc(N4CCOCC4)cc3C2=O)C(=O)N1 (stereo not shown) [PT-179] | 1110 |
